Data origin, for the record: patent US9504729B2

# Test system: angiogenesis genes in dermal microvascular endothelial cells
# experiment_summary: Real time RT-PCR of angiogenesis gene expression during endothelial tube formation
# Assay type: cell-based
# assay_conditions: 1 μM SM, 24 hours; 2nd listing (r188)
For each of the compounds below, state its Log2 fold-change of gene expression: Robo4.
Output: the number by itself.

Entry under test: COc1cc2cc(c1Cl)N(C)C(=O)CC(OC(=O)C(C)C)C1(C)OC1C(C)C1CC(O)(NC(=O)O1)C(OC)/C=C/C=C(\C)C2 (stereo not drawn) [compound 292222] . Its Log2 fold-change of gene expression: Robo4 was 0.0

Entry under test: COC(=O)C1CC(=O)C(C(=O)OC)CC1=O (stereo not drawn) [Compound 122567] . Its Log2 fold-change of gene expression: Robo4 was 1.2

Entry under test: CC1CCN(CC[S-])CC1.O.O.[Cl][Pt+] [compound 292596] . Its Log2 fold-change of gene expression: Robo4 was 0.2

Entry under test: CCC(=O)OCN1C(=O)C=CC1=O [compound 19630] . Its Log2 fold-change of gene expression: Robo4 was 0.3

Entry under test: O=C1C(=Cc2ccccc2)C(NC2CCCCC2)c2ccccc21 (stereo not drawn) [compound 150117] . Its Log2 fold-change of gene expression: Robo4 was −0.3

Entry under test: COc1ccc(CC2C(=O)NC(C)C(=O)N(C)C3Cc4ccc(cc4)Oc4cc(ccc4O)CC(C(=O)NC(C)C(=O)NC(C)C(=O)N2C)N(C)C3=O)cc1 (stereo not drawn) [compound 259969] . Its Log2 fold-change of gene expression: Robo4 was 0.3

====

# Tested on: angiogenesis genes in dermal microvascular endothelial cells
# experiment_summary: Real time RT-PCR of angiogenesis gene expression during endothelial tube formation
# Format: cell-based
# assay_conditions: 1 μM SM, 24 hours; 2nd listing (r139)
Is Log2 fold-change of gene expression: 151516 at least 0.5? Then Condition met. If not, Condition not met.

Has O=C1C(=Cc2ccccc2)C(NC2CCCCC2)c2ccccc21 (stereo not drawn) a recorded Log2 fold-change of gene expression: 151516 greater than or equal to 0.5?
Condition not met

Has COC(=O)C1CC(=O)C(C(=O)OC)CC1=O (stereo not drawn) a recorded Log2 fold-change of gene expression: 151516 greater than or equal to 0.5?
Condition met

Has CCC(=O)OCN1C(=O)C=CC1=O a recorded Log2 fold-change of gene expression: 151516 greater than or equal to 0.5?
Condition met

Has COc1cc2cc(c1Cl)N(C)C(=O)CC(OC(=O)C(C)C)C1(C)OC1C(C)C1CC(O)(NC(=O)O1)C(OC)/C=C/C=C(\C)C2 (stereo not drawn) a recorded Log2 fold-change of gene expression: 151516 greater than or equal to 0.5?
Condition met

Has CC1CCN(CC[S-])CC1.O.O.[Cl][Pt+] a recorded Log2 fold-change of gene expression: 151516 greater than or equal to 0.5?
Condition not met

====

# Test system: angiogenesis genes in dermal microvascular endothelial cells
# experiment_summary: Real time RT-PCR of angiogenesis gene expression during endothelial tube formation
# Type: cell-based
# assay_conditions: 1 μM SM, 24 hours
For each of the compounds below, state its Log2 fold-change of gene expression: RAMP2.
Output: the number by itself.

Entry under test: COc1cc2cc(c1Cl)N(C)C(=O)CC(OC(=O)C(C)C)C1(C)OC1C(C)C1CC(O)(NC(=O)O1)C(OC)/C=C/C=C(\C)C2 (stereo not drawn) . Its Log2 fold-change of gene expression: RAMP2 was −0.6

Entry under test: COC(=O)C1CC(=O)C(C(=O)OC)CC1=O (stereo not drawn) . Its Log2 fold-change of gene expression: RAMP2 was −5.8

Entry under test: CCC(=O)OCN1C(=O)C=CC1=O . Its Log2 fold-change of gene expression: RAMP2 was −4.8

Entry under test: COc1ccc(CC2C(=O)NC(C)C(=O)N(C)C3Cc4ccc(cc4)Oc4cc(ccc4O)CC(C(=O)NC(C)C(=O)NC(C)C(=O)N2C)N(C)C3=O)cc1 (stereo not drawn) . Its Log2 fold-change of gene expression: RAMP2 was −5.9

Entry under test: O=C1C(=Cc2ccccc2)C(NC2CCCCC2)c2ccccc21 (stereo not drawn) . Its Log2 fold-change of gene expression: RAMP2 was −4.4

Entry under test: CC1CCN(CC[S-])CC1.O.O.[Cl][Pt+] . Its Log2 fold-change of gene expression: RAMP2 was −5.0

====

# Tested on: angiogenesis genes in dermal microvascular endothelial cells
# experiment_summary: Real time RT-PCR of angiogenesis gene expression during endothelial tube formation
# Type: cell-based
# assay_conditions: 1 μM SM, 24 hours; 4th listing (r193)
measurement_label: Log2 fold-change of gene expression: B2M
Output: the number by itself.

Entry under test: COc1ccc(CC2C(=O)NC(C)C(=O)N(C)C3Cc4ccc(cc4)Oc4cc(ccc4O)CC(C(=O)NC(C)C(=O)NC(C)C(=O)N2C)N(C)C3=O)cc1 (stereo not drawn) . Its Log2 fold-change of gene expression: B2M was 0.8

Entry under test: O=C1C(=Cc2ccccc2)C(NC2CCCCC2)c2ccccc21 (stereo not drawn) . Its Log2 fold-change of gene expression: B2M was −0.8

Entry under test: CCC(=O)OCN1C(=O)C=CC1=O . Its Log2 fold-change of gene expression: B2M was −0.9

Entry under test: CC1CCN(CC[S-])CC1.O.O.[Cl][Pt+] . Its Log2 fold-change of gene expression: B2M was −0.8

Entry under test: COc1cc2cc(c1Cl)N(C)C(=O)CC(OC(=O)C(C)C)C1(C)OC1C(C)C1CC(O)(NC(=O)O1)C(OC)/C=C/C=C(\C)C2 (stereo not drawn) . Its Log2 fold-change of gene expression: B2M was 0.6

Entry under test: COC(=O)C1CC(=O)C(C(=O)OC)CC1=O (stereo not drawn) . Its Log2 fold-change of gene expression: B2M was 0.3

====

# test_target: FGFR1 (Homo sapiens)
# Sequence (P11362 398-822 limits assumed): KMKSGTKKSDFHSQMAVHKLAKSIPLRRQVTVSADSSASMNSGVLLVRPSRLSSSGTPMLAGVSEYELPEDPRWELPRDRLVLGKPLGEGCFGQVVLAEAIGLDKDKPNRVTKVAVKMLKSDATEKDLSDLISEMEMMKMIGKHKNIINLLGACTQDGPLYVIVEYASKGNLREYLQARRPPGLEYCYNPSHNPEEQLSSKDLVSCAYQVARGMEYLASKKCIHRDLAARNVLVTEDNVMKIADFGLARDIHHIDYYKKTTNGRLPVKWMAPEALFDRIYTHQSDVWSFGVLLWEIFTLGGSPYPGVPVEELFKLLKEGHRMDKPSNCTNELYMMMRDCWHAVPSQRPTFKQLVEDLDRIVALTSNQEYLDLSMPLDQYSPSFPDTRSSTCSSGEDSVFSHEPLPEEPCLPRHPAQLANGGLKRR
# experiment_summary: SelectScreen kinase activity profiling, FGFR1
# Assay type: biochemical
# Parameters: concentration or dose not given beside the values
# assay_conditions: second of two independent trials
measurement_label: % Inhibition (%)
# value in %; strip the unit string

Entry under test: O=C(O)C1CCCN1Cc1ccc2c(c1)OCO2 (stereo not drawn) . Its % Inhibition was 4

Entry under test: CSC(=[SH+])[N-]N=C(c1ccccn1)c1ccccn1.[Cu][Br] . Its % Inhibition was 5

Entry under test: COC(=O)c1ccc(CCc2cc(O)ccc2O)cc1 . Its % Inhibition was 3

Entry under test: CSC(=[SH+])[N-]N=Cc1cccc(C)n1.CSC(=[SH+])[N-]N=Cc1cccc(C)n1.[Cu] . Its % Inhibition was −1

Entry under test: CCCCC[CH2][Hg][S]c1nc(N)nc2[nH]cnc12 . Its % Inhibition was −2

Entry under test: CC1CCN(CC[S-])CC1.O.O.[Cl][Pt+] . Its % Inhibition was 4

Entry under test: COc1cc2cc(c1Cl)N(C)C(=O)CC(OC(=O)C(C)C)C1(C)OC1C(C)C1CC(O)(NC(=O)O1)C(OC)/C=C/C=C(\C)C2 (stereo not drawn) . Its % Inhibition was 5

Entry under test: COc1ccc(-c2csc3c2-n2cccc2C3=O)cc1 . Its % Inhibition was 3

Entry under test: CC(C)(O)/C=C/C(=O)C(C)(O)C1C(O)CC2(C)C3CC=C4C(C=C(O)C(=O)C4(C)C)C3(C)C(=O)CC12C (stereo not drawn) . Its % Inhibition was 0

Entry under test: CC(C)(C)c1cc(O)ccc1O . Its % Inhibition was −7

Entry under test: OC(c1cc(-c2ccccc2)nc2c1ccc1ccccc12)C1CCCCN1 (stereo not drawn) . Its % Inhibition was 10

Entry under test: O=C1C(=Cc2ccccc2)C(NC2CCCCC2)c2ccccc21 (stereo not drawn) . Its % Inhibition was 7

Entry under test: S=C1SCN(C2CCCCCCCCCCC2)CN1C1CCCCCCCCCCC1 . Its % Inhibition was 5

Entry under test: COc1ccc(NCc2c(O)ccc3ccccc23)cc1 . Its % Inhibition was 3

Entry under test: CC(=N[N-]C(=S)SCc1ccccc1)c1ccccn1.[Cl][Cu+] . Its % Inhibition was 9

Entry under test: CC1(C)C2CCC1(C)C(OC(=O)CSC#N)C2 (stereo not drawn) . Its % Inhibition was −3

Entry under test: CCC(=O)OCN1C(=O)C=CC1=O . Its % Inhibition was −2

Entry under test: O=C1c2ccccc2NC(c2cc(Cl)cc(Cl)c2O)N1CCc1ccccn1 (stereo not drawn) . Its % Inhibition was 5

====

For each of the molecules below, state its Log2 fold-change of gene expression: CST4.
# Test system: angiogenesis genes in dermal microvascular endothelial cells
# experiment_summary: Real time RT-PCR of angiogenesis gene expression during endothelial tube formation
# Format: cell-based
# assay_conditions: 1 μM SM, 24 hours
# Description: For gene expression studies, three independent experiments were run for each SM tested. […] Fluorescence was measured in every cycle and a melting curve was run after the PCR by increasing temperature from 50 to 96° C. […] The genes that were monitored were selected based on their relevance to the angiogenesis process. […]
Output: the number by itself.

Bench note, angiogenesis genes in dermal microvascular endothelial cells: entry O=C1C(=Cc2ccccc2)C(NC2CCCCC2)c2ccccc21 (stereo not drawn) , its Log2 fold-change of gene expression: CST4 = −0.1

Bench note, angiogenesis genes in dermal microvascular endothelial cells: entry COc1cc2cc(c1Cl)N(C)C(=O)CC(OC(=O)C(C)C)C1(C)OC1C(C)C1CC(O)(NC(=O)O1)C(OC)/C=C/C=C(\C)C2 (stereo not drawn) , its Log2 fold-change of gene expression: CST4 = 0.8

Bench note, angiogenesis genes in dermal microvascular endothelial cells: entry COc1ccc(CC2C(=O)NC(C)C(=O)N(C)C3Cc4ccc(cc4)Oc4cc(ccc4O)CC(C(=O)NC(C)C(=O)NC(C)C(=O)N2C)N(C)C3=O)cc1 (stereo not drawn) , its Log2 fold-change of gene expression: CST4 = 0.4

Bench note, angiogenesis genes in dermal microvascular endothelial cells: entry CCC(=O)OCN1C(=O)C=CC1=O , its Log2 fold-change of gene expression: CST4 = 0.8

Bench note, angiogenesis genes in dermal microvascular endothelial cells: entry CC1CCN(CC[S-])CC1.O.O.[Cl][Pt+] , its Log2 fold-change of gene expression: CST4 = 0.3

Bench note, angiogenesis genes in dermal microvascular endothelial cells: entry COC(=O)C1CC(=O)C(C(=O)OC)CC1=O (stereo not drawn) , its Log2 fold-change of gene expression: CST4 = 1.3
